Molecular target: Cysteinyl leukotriene receptor 1 (Homo sapiens, UniProt Q9Y271); note: in other assays of this panel Not Active means under 50% inhibition at 10 µM
Sequence (Q9Y271 whole entry): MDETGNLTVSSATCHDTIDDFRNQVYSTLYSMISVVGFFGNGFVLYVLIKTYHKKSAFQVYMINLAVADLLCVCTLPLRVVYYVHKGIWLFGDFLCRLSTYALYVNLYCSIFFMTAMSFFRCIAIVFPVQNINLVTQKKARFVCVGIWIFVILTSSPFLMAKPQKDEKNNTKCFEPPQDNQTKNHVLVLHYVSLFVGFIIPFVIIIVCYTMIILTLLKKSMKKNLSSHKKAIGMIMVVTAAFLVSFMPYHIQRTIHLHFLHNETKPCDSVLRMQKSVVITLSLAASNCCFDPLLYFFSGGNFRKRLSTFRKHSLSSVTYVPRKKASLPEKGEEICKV
Type: cell membranes, CHO-K1, Membrane
Conditions: read-out: IC50
measurement.kind: pIC50
Here pIC50 is given on a logarithmic scale as minus log10 of the concentration in mol/L.

Query :: Note down pIC50 recorded for CC/C(=C(/CC)c1ccc(O)cc1)c1ccc(O)cc1
Result :: 4.75

* * *

In this section, each of the compounds is paired with its reported IC50.
Target: 5-hydroxytryptamine receptor 1B (Rattus norvegicus); note: in other assays of this panel Not Active means under 50% inhibition at 10 µM
Sequence (P28564 whole entry): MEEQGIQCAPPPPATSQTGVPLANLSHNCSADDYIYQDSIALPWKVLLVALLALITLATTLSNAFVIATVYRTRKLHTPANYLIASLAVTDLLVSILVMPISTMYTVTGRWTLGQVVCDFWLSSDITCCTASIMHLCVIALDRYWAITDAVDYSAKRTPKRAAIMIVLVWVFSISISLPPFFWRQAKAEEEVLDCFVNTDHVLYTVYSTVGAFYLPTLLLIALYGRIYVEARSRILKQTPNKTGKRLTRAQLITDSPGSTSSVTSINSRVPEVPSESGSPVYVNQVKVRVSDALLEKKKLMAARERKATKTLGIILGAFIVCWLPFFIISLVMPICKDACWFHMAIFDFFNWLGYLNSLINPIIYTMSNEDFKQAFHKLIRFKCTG
Format: cell membranes, Wistar, Cerebral cortex, Membrane
Conditions: read-out: IC50
Field format: number, assumed µM, no unit text.

Here's what some known entries look like.
>  <compound>
O=C(c1ccc(OCCN2CCCCC2)cc1)c1c(-c2ccc(O)cc2)sc2cc(O)ccc12

>  <IC50 / µM>
1.86

$$$$
>  <compound>
COc1cccc2c1C(=O)c1c(O)c3c(c(O)c1C2=O)C[C@@](O)(C(=O)CO)C[C@@H]3O[C@H]1C[C@H](N)[C@H](O)[C@H](C)O1

>  <IC50 / µM>
34.5

$$$$
>  <compound>
CN1CCC(=C2c3ccccc3C=Cc3ccccc32)CC1

>  <IC50 / µM>
2.78

$$$$

Query :: Note down IC50 recorded for CC(=O)N1CCN(c2ccc(OCC3COC(Cn4ccnc4)(c4ccc(Cl)cc4Cl)O3)cc2)CC1 (centres undefined)
Result :: 13.5

* * *

Target: Mu-type opioid receptor (Homo sapiens, UniProt P35372)
Sequence (P35372 whole entry): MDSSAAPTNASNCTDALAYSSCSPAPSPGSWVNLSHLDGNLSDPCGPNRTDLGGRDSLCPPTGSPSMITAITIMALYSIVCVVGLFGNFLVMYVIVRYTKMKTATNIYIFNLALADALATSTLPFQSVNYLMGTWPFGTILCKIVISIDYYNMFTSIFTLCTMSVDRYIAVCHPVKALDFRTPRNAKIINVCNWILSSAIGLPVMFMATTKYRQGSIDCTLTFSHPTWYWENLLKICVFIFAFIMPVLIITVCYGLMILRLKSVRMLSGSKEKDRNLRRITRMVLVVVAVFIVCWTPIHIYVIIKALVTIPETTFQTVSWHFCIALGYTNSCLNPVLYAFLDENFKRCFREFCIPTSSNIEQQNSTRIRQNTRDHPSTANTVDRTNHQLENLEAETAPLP
Assay: DRUGMATRIX: Opiate mu (OP3, MOP) radioligand binding (ligand: [3H] Diprenorphine)
Assay type: cell membranes, CHO-K1, Membrane
Conditions: Not Active = under 50% inhibition at 10 µM; read-out: Ki
measurement.kind: pKi
Here pKi is given on a logarithmic scale as minus log10 of the concentration in mol/L.

Query :: // output pKi; input CN(C)c1ccc(C(=C2C=CC(=[N+](C)C)C=C2)c2ccc(N(C)C)cc2)cc1.[Cl-] [GENTIAN VIOLET] ; system Mu-type opioid receptor (Homo sapiens, UniProt P35372)
Result :: 6.06

* * *

In this section, each of the compounds is paired with its reported pKi.
Biological target: D(3) dopamine receptor (Homo sapiens, UniProt P35462)
Sequence (P35462 whole entry): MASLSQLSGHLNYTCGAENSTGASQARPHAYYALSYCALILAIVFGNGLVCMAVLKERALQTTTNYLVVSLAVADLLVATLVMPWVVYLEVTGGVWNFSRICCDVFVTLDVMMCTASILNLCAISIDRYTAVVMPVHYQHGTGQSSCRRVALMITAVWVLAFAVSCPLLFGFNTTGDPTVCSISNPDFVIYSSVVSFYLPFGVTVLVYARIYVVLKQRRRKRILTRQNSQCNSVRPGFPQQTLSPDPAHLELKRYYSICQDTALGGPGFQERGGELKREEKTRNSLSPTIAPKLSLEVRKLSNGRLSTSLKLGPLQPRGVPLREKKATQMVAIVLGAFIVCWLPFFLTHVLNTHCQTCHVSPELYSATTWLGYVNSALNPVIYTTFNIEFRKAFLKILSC
Assay: DRUGMATRIX: Dopamine D3 radioligand binding (ligand: [3H] Spiperone)
Type: cell membranes, CHO, Membrane
Details: read-out: Ki
Here pKi is given on a logarithmic scale as minus log10 of the concentration in mol/L.

Query :: Note down pKi recorded for CN(C)c1ccc(C(=C2C=CC(=[N+](C)C)C=C2)c2ccc(N(C)C)cc2)cc1.[Cl-]
Result :: 6.55

Query :: Note down pKi recorded for COCCCOc1ccnc(C[S+]([O-])c2nc3ccccc3[nH]2)c1C (configuration not stated)
Result :: 6.10

* * *

Assay: DRUGMATRIX: Imidazoline I2, Central radioligand binding (ligand: [3H] Idazoxan)
Format: cell membranes, Rattus norvegicus, Wistar, Cerebral cortex, Membrane
Conditions: Not Active = under 50% inhibition at 10 µM

>  <compound>
C/C=C/C[C@@H](C)[C@@H](O)[C@H]1C(=O)N[C@@H](CC)C(=O)N(C)CC(=O)N(C)[C@@H](CC(C)C)C(=O)N[C@@H](C(C)C)C(=O)N(C)[C@@H](CC(C)C)C(=O)N[C@@H](C)C(=O)N[C@H](C)C(=O)N(C)[C@@H](CC(C)C)C(=O)N(C)[C@@H](CC(C)C)C(=O)N(C)[C@@H](C(C)C)C(=O)N1C [CYCLOSPORINE]

>  <IC50>
Not Active

$$$$
>  <compound>
C[C@H]1O[C@@H](O[C@H]2[C@@H](O)C[C@H](O[C@H]3[C@@H](O)C[C@H](O[C@H]4CC[C@@]5(C)[C@H](CC[C@@H]6[C@@H]5CC[C@]5(C)[C@@H](C7=CC(=O)OC7)CC[C@]65O)C4)O[C@@H]3C)O[C@@H]2C)C[C@H](O)[C@@H]1O [DIGITOXIN]

>  <IC50>
Not Active

$$$$
>  <compound>
COc1cc(NS(=O)(=O)c2ccc(N)cc2)nc(OC)n1 [SULFADIMETHOXINE]

>  <IC50>
Not Active

$$$$

* * *

Experiment: DRUGMATRIX: Phosphodiesterase PDE3 enzyme inhibition (substrate: [3H]cAMP + cAMP)
Assay type: tissue-based, Homo sapiens
Conditions: platelet; Not Active = under 50% inhibition at 10 µM
measurement.kind: IC50

Here's what some known entries look like.
>  <compound>
COc1ccc2[nH]c([S+]([O-])Cc3ncc(C)c(OC)c3C)nc2c1 (centres undefined)

>  <measurement.kind>
IC50

>  <endpoint.result>
Not Active

$$$$
>  <compound>
CC(=O)OCC(=O)[C@@]1(O)CC[C@H]2[C@@H]3CCC4=CC(=O)CC[C@]4(C)[C@H]3C(=O)C[C@@]21C [CORTISONE ACETATE]

>  <measurement.kind>
IC50

>  <endpoint.result>
Not Active

$$$$
>  <compound>
CC(C)(Oc1ccc(C2CCCc3ccccc32)cc1)C(=O)O (centres undefined)

>  <measurement.kind>
IC50

>  <endpoint.result>
Not Active

$$$$
>  <compound>
CCN[C@@H]1C[C@H](N)[C@@H](O[C@H]2OC(CN)=CC[C@H]2N)[C@H](O)[C@H]1O[C@H]1OC[C@](C)(O)[C@H](NC)[C@H]1O

>  <measurement.kind>
IC50

>  <endpoint.result>
Not Active

$$$$
>  <compound>
Cc1cc(C)nc(NS(=O)(=O)c2ccc(N)cc2)n1

>  <measurement.kind>
IC50

>  <endpoint.result>
Not Active

$$$$

Query :: Note down IC50 recorded for CN(C)/N=N/c1[nH]cnc1C(N)=O
Result :: Not Active

Query :: Note down IC50 recorded for Cc1ncc([N+](=O)[O-])n1CCO
Result :: Not Active

Query :: Note down IC50 recorded for Cc1onc(-c2ccccc2)c1-c1ccc(S(N)(=O)=O)cc1
Result :: Not Active

Query :: Note down IC50 recorded for C[C@]1(Cn2ccnn2)[C@H](C(=O)O)N2C(=O)C[C@H]2S1(=O)=O
Result :: Not Active

* * *

Target: D(4) dopamine receptor (Homo sapiens, UniProt P21917)
Sequence (P21917 whole entry): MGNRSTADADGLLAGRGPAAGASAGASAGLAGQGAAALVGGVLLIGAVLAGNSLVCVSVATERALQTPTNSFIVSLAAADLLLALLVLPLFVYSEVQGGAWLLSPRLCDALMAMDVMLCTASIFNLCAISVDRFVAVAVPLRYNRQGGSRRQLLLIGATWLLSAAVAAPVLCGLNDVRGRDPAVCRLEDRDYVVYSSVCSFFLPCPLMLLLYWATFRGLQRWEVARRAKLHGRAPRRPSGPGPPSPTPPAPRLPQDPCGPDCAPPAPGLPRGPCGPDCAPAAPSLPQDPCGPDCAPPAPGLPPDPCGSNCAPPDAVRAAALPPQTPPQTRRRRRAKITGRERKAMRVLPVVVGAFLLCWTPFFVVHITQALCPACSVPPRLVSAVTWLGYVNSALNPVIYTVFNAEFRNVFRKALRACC
Assay: DRUGMATRIX: Dopamine D4.2 radioligand binding (ligand: [3H] Spiperone)
Assay type: cell membranes, Membrane
Details: cho-k1; Not Active = under 50% inhibition at 10 µM
measurement.kind: IC50

Here's what some known entries look like.
>  <compound>
COCCOC(=O)C1=C(C)NC(C)=C(C(=O)OC(C)C)C1c1cccc([N+](=O)[O-])c1 (stereo not drawn)

>  <IC50>
Not Active

$$$$
>  <compound>
COc1cccc2c1C(=O)c1c(O)c3c(c(O)c1C2=O)C[C@@](O)(C(=O)CO)C[C@@H]3O[C@H]1C[C@H](N)[C@H](O)[C@H](C)O1

>  <IC50>
Not Active

$$$$
>  <compound>
N=C(Nc1ccccc1)Nc1ccccc1

>  <IC50>
Not Active

$$$$
>  <compound>
Cn1c(=O)c2c(ncn2CC2OCCO2)n(C)c1=O

>  <IC50>
Not Active

$$$$
>  <compound>
C#C[C@]1(OC(C)=O)CC[C@H]2[C@@H]3CCC4=CC(=O)CC[C@@H]4[C@H]3CC[C@@]21C [NORETHINDRONE ACETATE]

>  <IC50>
Not Active

$$$$
>  <compound>
Cc1ccccc1C(=O)N1CCC(Cc2ccccc2)CC1

>  <IC50>
Not Active

$$$$

Query :: Note down IC50 recorded for Nc1c(CC(=O)O)cccc1C(=O)c1ccc(Br)cc1
Result :: Not Active

Query :: Note down IC50 recorded for O=NN(CCCl)C(=O)NCCCl
Result :: Not Active

Query :: Note down IC50 recorded for Cc1ncc([N+](=O)[O-])n1CCO
Result :: Not Active

Query :: Note down IC50 recorded for N=C(N)NC(=O)c1nc(Cl)c(N)nc1N [AMILORIDE]
Result :: Not Active

Query :: Note down IC50 recorded for CC(C)[C@H]1CC[C@H](C(=O)N[C@H](Cc2ccccc2)C(=O)O)CC1 [NATEGLINIDE]
Result :: Not Active

Query :: Note down IC50 recorded for C=C1CC[C@H](O)C/C1=C/C=C1\CCC[C@]2(C)[C@@H]([C@H](C)CCCC(C)C)CC[C@@H]12
Result :: Not Active

Query :: Note down IC50 recorded for S=C=Nc1cccc2ccccc12 [1-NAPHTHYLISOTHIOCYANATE]
Result :: Not Active

Query :: Note down IC50 recorded for NC(=O)c1cnccn1 [PYRAZINAMIDE]
Result :: Not Active

Query :: Note down IC50 recorded for COc1ccc2[nH]c([S+]([O-])Cc3ncc(C)c(OC)c3C)nc2c1 (stereo not drawn)
Result :: Not Active

Query :: Note down IC50 recorded for CNC(=C[N+](=O)[O-])NCCSCc1ccc(CN(C)C)o1
Result :: Not Active

Query :: Note down IC50 recorded for COc1cc2c(c(OC)c1OC)-c1ccc(OC)c(=O)cc1[C@@H](NC(C)=O)CC2
Result :: Not Active

Query :: Note down IC50 recorded for O=c1ccc2ccccc2o1
Result :: Not Active

Query :: Note down IC50 recorded for OC(CCN1CCCCC1)(c1ccccc1)C1CCCCC1 (stereo not drawn)
Result :: Not Active

Query :: Note down IC50 recorded for CC(=O)N[C@@H]1[C@H](Oc2c3cc4cc2Oc2ccc(cc2Cl)[C@@H](O[C@@H]2O[C@@H](CO)[C@@H](O)[C@H](O)[C@@H]2NC(C)=O)[C@@H]2NC(=O)[C@H](NC(=O)[C@@H]4NC(=O)[C@H]4NC(=O)[C@@H](Cc5ccc(c(Cl)c5)O3)NC(=O)[C@H](N)c3ccc(O)c(c3)Oc3cc(O)cc4c3)c3ccc(O)c(c3)-c3c(O[C@H]4O[C@H](CO)[C@@H](O)[C@@H](O)[C@@H]4O)cc(O)cc3[C@@H](C(=O)O)NC2=O)O[C@@H](CO)[C@@H](O)[C@@H]1O
Result :: Not Active

Query :: Note down IC50 recorded for CN(C)c1ccc(C(=C2C=CC(=[N+](C)C)C=C2)c2ccc(N(C)C)cc2)cc1.[Cl-]
Result :: Not Active

Query :: Note down IC50 recorded for O=C(C1CCCCC1)N1CC(=O)N2CCc3ccccc3C2C1 (stereo not drawn)
Result :: Not Active

Query :: Note down IC50 recorded for CC1=C(CC(=O)O)c2cc(F)ccc2/C1=C\c1ccc([S+](C)[O-])cc1 (stereo not drawn)
Result :: Not Active

Query :: Note down IC50 recorded for CC1(C)O[C@@H]2C[C@H]3[C@@H]4C[C@H](F)C5=CC(=O)C=C[C@]5(C)[C@H]4[C@@H](O)C[C@]3(C)[C@]2(C(=O)CO)O1 [FLUNISOLIDE]
Result :: Not Active

Query :: Note down IC50 recorded for CC(=O)CC(c1ccccc1)c1c(O)c2ccccc2oc1=O (stereo not drawn)
Result :: Not Active

Query :: Note down IC50 recorded for COc1cc2c(c3oc(=O)c4c(c13)CCC4=O)[C@@H]1C=CO[C@@H]1O2
Result :: Not Active

Query :: Note down IC50 recorded for COc1cc(NS(=O)(=O)c2ccc(N)cc2)nc(OC)n1
Result :: Not Active

Query :: Note down IC50 recorded for Cc1ccc(S(=O)(=O)NC(=O)NN2CC3CCCC3C2)cc1 (stereo not drawn) [GLICLAZIDE]
Result :: Not Active

Query :: Note down IC50 recorded for COc1ccc2cc([C@H](C)C(=O)O)ccc2c1
Result :: Not Active

Query :: Note down IC50 recorded for CC(=O)Nc1c(I)c(NC(C)=O)c(I)c(C(=O)O)c1I
Result :: Not Active

Cited source: ChEMBL document CHEMBL1909046
